MFI values for the binders below.
Target: T1, human Siglec-7 expressed on human cells (primary monocytes, dendritic cells, macrophages, NK cells, … (human, UniProt Q9Y286 19-467))
T1 construct: Endogenous receptor on cells; also called Siglec-7 receptor
T1 sequence (Q9Y286 19-467): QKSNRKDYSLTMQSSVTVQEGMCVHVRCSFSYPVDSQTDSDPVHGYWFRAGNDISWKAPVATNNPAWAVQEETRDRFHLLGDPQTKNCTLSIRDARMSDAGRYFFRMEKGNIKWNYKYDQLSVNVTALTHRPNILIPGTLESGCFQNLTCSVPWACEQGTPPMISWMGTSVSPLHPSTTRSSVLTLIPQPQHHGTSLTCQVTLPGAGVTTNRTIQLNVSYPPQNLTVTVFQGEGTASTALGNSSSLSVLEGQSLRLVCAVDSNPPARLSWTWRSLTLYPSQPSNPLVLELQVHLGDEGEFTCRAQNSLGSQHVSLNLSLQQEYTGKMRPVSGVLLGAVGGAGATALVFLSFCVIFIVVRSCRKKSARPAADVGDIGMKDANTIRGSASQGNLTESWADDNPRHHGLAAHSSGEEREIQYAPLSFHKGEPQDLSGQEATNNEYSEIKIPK
Experiment: FACS, human primary macrophages, 10 ug/ml mAb
Answer field: number only, no words.

Use these answered entries as a reference point.
{"Binder": "anti-Siglec-7 antibody 10B5 (antibody, V domains shown, that light chain holds several Z and differs in its CDRs from S7-10B5.1 / 10B5L1; also called S7-10B5; mAb S7-10B5) VH: QVHLQQSGPELVKPGASVKISCKASGYAFTNCWMNWVRQRPGKGLDWIGRIFPGNGHTNYSGKFKDKATLTEDKSSSTAYMQLSSLTSEDSAVYFCARDYSDYYFDYWGQGTTLTVSS VL: DVQMTQTTSSLSASLGDRVTISCRASQDINTYLNWYQQKPDGTVKLLIYYTSRLHSGVPSRFSGSGSGTDYSLTISNLEQEDIATYFCQQGNTLPWTFGGGTKLEIK", "MFI": 6030}
{"Binder": "anti-Siglec-7 antibody 7A3 (antibody, V domains shown, Variable domains assembled from FR and CDR entries; VL FR1 and VH FR1 hold Z and VH FR1 looks shortened at its N-terminus) VH: LVZSGGALVKPGGSLKLSCAASGFTFSNYAMSWVRQTPEKRLEWVASISSGGSYNYYPDSVKGRFTISRDNARNTLYLQMSSLRSKDTAMYYCASQSYGSSYWYFDVWGAGTTVTVSS VL: DIQMTQZPATLSVTPGDRVSLSCRASQSISEYLHWYHQKSHESPRLLIKFASQSICGIPSRFSGSGSGSDFTLTINSVEPEDVGVYYCQNGHNFPYTFGGGTKLEIK", "MFI": 2840}

Consider the record given below.
[in] Report MFI, nothing else, for this binder: anti-Siglec-7 antibody 4A1 (antibody, V domains shown, Variable domains assembled from FR and CDR entries) VH: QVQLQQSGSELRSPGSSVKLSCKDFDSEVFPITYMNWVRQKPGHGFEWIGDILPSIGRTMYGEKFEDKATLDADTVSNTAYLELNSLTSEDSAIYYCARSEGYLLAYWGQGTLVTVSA VL: DVVMTQTPLSLPVSLGDQASISCRSSQSLVHSTGNIYLHWYLQKPGQSPKLLIYKVSNRFZGVPDRFSGSGSGTDFTLKISRVEAEDLGVYFCSQNTHVPYTFGGGTKLEIK
[out] 14600
